Taken from patent US12252484B2.

targetSystem: human TLR7 (Homo sapiens, UniProt Q9NYK1)
Sequence (Q9NYK1 27-1049): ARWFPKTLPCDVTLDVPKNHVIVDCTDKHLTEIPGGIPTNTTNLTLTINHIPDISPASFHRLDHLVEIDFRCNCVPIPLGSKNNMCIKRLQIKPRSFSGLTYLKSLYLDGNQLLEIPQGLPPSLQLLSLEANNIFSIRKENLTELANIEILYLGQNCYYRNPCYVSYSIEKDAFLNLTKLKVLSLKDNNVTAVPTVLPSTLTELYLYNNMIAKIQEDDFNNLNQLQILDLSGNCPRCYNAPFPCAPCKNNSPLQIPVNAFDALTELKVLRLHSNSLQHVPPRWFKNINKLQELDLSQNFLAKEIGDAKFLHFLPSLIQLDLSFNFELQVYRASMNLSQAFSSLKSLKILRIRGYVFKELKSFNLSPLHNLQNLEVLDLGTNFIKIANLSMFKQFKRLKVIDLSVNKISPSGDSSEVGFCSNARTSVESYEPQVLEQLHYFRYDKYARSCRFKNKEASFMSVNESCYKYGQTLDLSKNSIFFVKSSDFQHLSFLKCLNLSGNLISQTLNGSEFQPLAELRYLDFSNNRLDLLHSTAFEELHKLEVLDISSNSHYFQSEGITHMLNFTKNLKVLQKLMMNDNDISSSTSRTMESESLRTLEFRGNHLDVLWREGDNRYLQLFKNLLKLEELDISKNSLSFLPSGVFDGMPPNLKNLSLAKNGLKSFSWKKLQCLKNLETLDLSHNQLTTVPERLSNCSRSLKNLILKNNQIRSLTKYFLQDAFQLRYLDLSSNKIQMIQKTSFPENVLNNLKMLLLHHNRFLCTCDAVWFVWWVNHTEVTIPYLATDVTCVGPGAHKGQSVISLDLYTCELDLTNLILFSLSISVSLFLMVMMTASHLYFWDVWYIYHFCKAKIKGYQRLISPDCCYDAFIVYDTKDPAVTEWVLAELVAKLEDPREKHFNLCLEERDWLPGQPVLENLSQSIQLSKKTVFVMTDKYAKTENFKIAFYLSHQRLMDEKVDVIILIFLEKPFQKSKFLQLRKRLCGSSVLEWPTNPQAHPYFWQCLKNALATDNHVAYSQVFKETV
measurementDescription: HEK293-Blue-hTLR-7 cells assay (SEAP reporter, R848 stimulation)
Assay type: cell-based
measurementContext: HEK293-Blue-hTLR-7 cells, R848 ligand, 20 hrs incubation; read-out: TLR7 IC50
recordedMetric: IC50 (nM)

Sample records with IC50:
API: value(readout= IC50, system= human TLR7 (Homo sapiens, UniProt Q9NYK1), query= C[C@@H]1CN(c2ccc(C#N)n3nccc23)C[C@H](C(=O)NC2C3CNCC2COC3)O1 (stereo partly shown) [Example 27] )
63

// map C[C@@H]1CN(c2ccc(C#N)n3nccc23)C[C@H](C(=O)NCC2CN(C)CCO2)O1 (stereo partly shown) [Example 7] to recorded IC50 (system: human TLR7 (Homo sapiens, UniProt Q9NYK1))
67

A = C[C@@H]1CN(c2ccc(C#N)n3nccc23)C[C@H](C(=O)NC2CNC[C@H]2F)O1 (stereo partly shown) [Example 5]
B = C[C@@H]1CN(c2ccc(C#N)n3nccc23)C[C@H](C(=O)NC2CC3CC2CN3)O1 (stereo partly shown) [Example 36]
Lab notebook, comparison: A versus B , higher IC50 goes to which? Respond with the label that goes with your answer.
B
